Origin of values: ChEMBL document CHEMBL1123304

- MEASUREMENT TARGET: Sodium-dependent dopamine transporter (Rattus norvegicus) (UniProt P23977)
- Sequence (P23977 whole entry): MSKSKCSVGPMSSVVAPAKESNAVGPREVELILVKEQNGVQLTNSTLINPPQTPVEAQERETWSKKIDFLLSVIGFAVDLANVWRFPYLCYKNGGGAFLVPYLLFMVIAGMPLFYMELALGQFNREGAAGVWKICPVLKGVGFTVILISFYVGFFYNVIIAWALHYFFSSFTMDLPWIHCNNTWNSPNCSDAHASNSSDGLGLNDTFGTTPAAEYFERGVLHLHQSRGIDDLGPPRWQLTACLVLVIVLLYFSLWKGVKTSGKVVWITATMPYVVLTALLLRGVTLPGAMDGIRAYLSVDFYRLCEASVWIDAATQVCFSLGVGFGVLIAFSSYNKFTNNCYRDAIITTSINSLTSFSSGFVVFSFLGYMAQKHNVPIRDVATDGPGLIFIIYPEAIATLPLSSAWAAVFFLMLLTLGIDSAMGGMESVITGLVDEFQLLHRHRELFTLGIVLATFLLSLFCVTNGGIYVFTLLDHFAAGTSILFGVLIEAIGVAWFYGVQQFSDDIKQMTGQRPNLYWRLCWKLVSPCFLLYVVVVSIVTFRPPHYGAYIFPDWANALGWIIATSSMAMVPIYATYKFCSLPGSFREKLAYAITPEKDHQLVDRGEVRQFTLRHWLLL
- PROTOCOL DETAILS: Inhibitory activity against inducing stereotypy in rats
- Type: functional
What EDmin was measured for each of the following?
# value in mg/kg; strip the unit string

**Q:** Note EDmin for the compound shown: CCCCNCC(=O)Nc1cccc2c1CN(C)CC2c1ccccc1 (stereo unspecified)
**A:** 32.8

**Q:** Recall and state the measured EDmin for CN1Cc2c(NC(=O)CN3CCCC3)cccc2C(c2ccccc2)C1 (stereo unspecified) .
**A:** 52.4

**Q:** Write down EDmin measured for item CCOC(=O)Nc1cccc2c1CN(C)CC2c1ccc(F)cc1 (stereo unspecified)
**A:** 8

----------
- System: Mus musculus
- PROTOCOL DETAILS: Inhibition of tetrabenazine ptosis in mice (sc).
- Assay type: functional
Please respond with reported ED50 for every item in the list.

**Q:** Indicate the recorded ED50 value for this compound: CCCNC(=O)Nc1cccc2c1CN(C)CC2c1ccccc1 (stereo unspecified)
**A:** > 80 mg/kg

**Q:** Return the recorded ED50 value; entry: CCCCNC(=O)Nc1cccc2c1CN(C)CC2c1ccc(C)cc1 (stereo unspecified)
**A:** ~15 mg/kg

**Q:** Provide only the value of recorded ED50 for CC(C)NCCC(=O)Nc1cccc2c1CN(C)CC2c1ccccc1 (stereo unspecified)
**A:** ~125 mg/kg

**Q:** Check the records and state ED50 for CCNCCC(=O)Nc1cccc2c1CN(C)CC2c1ccccc1 (stereo unspecified)
**A:** > 160 mg/kg

**Q:** Give recorded ED50. Cc1ccc(C2CN(C)Cc3c(N)cccc32)cc1 (stereo unspecified)
**A:** ~1.2 mg/kg

**Q:** Give the reported ED50 for this compound. CCOC(=O)Nc1cccc2c1CN(C)CC2c1ccccc1 (stereo unspecified)
**A:** ~4 mg/kg

----------
- MEASUREMENT TARGET: Sodium-dependent dopamine transporter (Rattus norvegicus) (UniProt P23977)
- PROTOCOL DETAILS: Inhibitory activity against inducing stereotypy in rats
- Assay type: functional
PROPERTY NAME: log10 EDmin (log10 of the value in mg/kg)
Transform log10 | Measure EDmin | Unit mg/kg

**Q:** Identify log10 EDmin associated with the compound CCNCCC(=O)Nc1cccc2c1CN(C)CC2c1ccccc1 (configuration not stated)
**A:** 2.13

**Q:** Consider the compound CCCCOC(=O)Nc1cccc2c1CN(C)CC2c1ccccc1 (configuration not stated) . State its measured log10 EDmin.
**A:** 1.31

**Q:** Identify log10 EDmin associated with the compound CCCCNC(=O)Nc1cccc2c1CN(C)CC2c1ccc(Cl)cc1 (configuration not stated)
**A:** 2.13

**Q:** Respond only with log10 EDmin recorded for CCCCNCC(=O)Nc1cccc2c1CN(C)CC2c1ccc(Cl)cc1 (configuration not stated)
**A:** 1.52

**Q:** Report measured log10 EDmin; entry is CCCCNC(=O)Nc1cccc2c1CN(C)CC2c1ccc(C)cc1 (configuration not stated)
**A:** 1.92

**Q:** For the compound CCCCNCC(=O)Nc1cccc2c1CN(C)CC2c1ccc(C)cc1 (configuration not stated) , give its measured log10 EDmin value.
**A:** 1.72

**Q:** Query log10 EDmin for CN1Cc2c(NC(=O)OCc3ccccc3)cccc2C(c2ccccc2)C1 (configuration not stated)
**A:** 1.08

**Q:** Input CCNCC(=O)Nc1cccc2c1CN(C)CC2c1ccccc1 (configuration not stated) , output reported log10 EDmin.
**A:** 1.72

**Q:** Tell us which log10 EDmin value is on record for CN1Cc2c(NC(=O)CCl)cccc2C(c2ccccc2)C1 (configuration not stated)
**A:** 0.90

**Q:** Find the measured log10 EDmin of CCOC(=O)Nc1cccc2c1CN(C)CC2c1ccc(Cl)cc1 (configuration not stated) and report it.
**A:** 0.72

----------
- Species on record: Felis catus
- PROTOCOL DETAILS: Compound was tested for potentiating the dopamine-induced hypotension in cats.
- Assay type: functional
Answer each item with its documented log10(EDmin).
Hey, these are logged values: log10 of EDmin, mg/kg being the unit before logging.

**Q:** Provide measured log10(EDmin) value, entry: CN1Cc2c(NC(=O)CCCl)cccc2C(c2ccccc2)C1 (stereo not given)
**A:** 0.00

**Q:** Answer with reported log10(EDmin) of CCCCOC(=O)Nc1cccc2c1CN(C)CC2c1ccccc1 (stereo not given)
**A:** 0.30

**Q:** Provide log10(EDmin) value for the following compound: CN1Cc2c(NC(=O)CN3CCCC3)cccc2C(c2ccccc2)C1 (stereo not given)
**A:** 0.48

**Q:** Using known records, supply log10(EDmin) for CCCCNC(=O)Nc1cccc2c1CN(C)CC2c1ccc(Cl)cc1 (stereo not given)
**A:** 0.48

**Q:** Answer with the recorded log10(EDmin) for the compound listed here: CC(C)NCC(=O)Nc1cccc2c1CN(C)CC2c1ccccc1 (stereo not given)
**A:** 0.00

**Q:** Give the reported log10(EDmin) for this compound. CCCCNCC(=O)Nc1cccc2c1CN(C)CC2c1ccccc1 (stereo not given)
**A:** 0.30

**Q:** State its log10(EDmin) for this compound: CCCCNCC(=O)Nc1cccc2c1CN(C)CC2c1ccc(Cl)cc1 (stereo not given)
**A:** -0.30

**Q:** Report log10(EDmin), nothing else, for this compound: CCNCCC(=O)Nc1cccc2c1CN(C)CC2c1ccccc1 (stereo not given)
**A:** 0.60

**Q:** Give recorded log10(EDmin). CCCCNCC(=O)Nc1cccc2c1CN(C)CC2c1ccc(C)cc1 (stereo not given)
**A:** 0.00

**Q:** State, in one line, measured log10(EDmin) of CN1Cc2c(NC(=O)CCl)cccc2C(c2ccccc2)C1 (stereo not given)
**A:** 0.00

**Q:** Return log10(EDmin) for the following compound: CN1Cc2c(N)cccc2C(c2ccc(F)cc2)C1 (stereo not given)
**A:** -0.70

**Q:** Give log10(EDmin) for Cc1ccc(C2CN(C)Cc3c(N)cccc32)cc1 (stereo not given)
**A:** -0.70

**Q:** Write down log10(EDmin) measured for item CN1Cc2c(NC(=O)CN3CCOCC3)cccc2C(c2ccccc2)C1 (stereo not given)
**A:** 0.48

**Q:** Return reported log10(EDmin). Input compound: CCNCC(=O)Nc1cccc2c1CN(C)CC2c1ccc(Cl)cc1 (stereo not given)
**A:** -0.30

----------
- MEASUREMENT TARGET: Sodium-dependent dopamine transporter (Rattus norvegicus) (UniProt P23977)
- PROTOCOL DETAILS: Inhibitory activity against inducing stereotypy in rats
- Format: functional
PROPERTY NAME: EDmin

**Q:** Given the compound CCNC(=O)Nc1cccc2c1CN(C)CC2c1ccccc1 (stereo not drawn) , write its reported EDmin.
**A:** > 83 mg/kg

**Q:** Indicate the recorded EDmin value for this compound: CCCCNC(=O)Nc1cccc2c1CN(C)CC2c1ccccc1 (stereo not drawn)
**A:** > 83 mg/kg

**Q:** Dear colleague, please send me the reported EDmin for CCCCNCCC(=O)Nc1cccc2c1CN(C)CC2c1ccccc1 (stereo not drawn) when you can.
**A:** > 83 mg/kg

----------
What EDmin was measured for each of the following?
- MEASUREMENT TARGET: Sodium-dependent dopamine transporter (Rattus norvegicus) (UniProt P23977)
- PROTOCOL DETAILS: Inhibitory activity against inducing stereotypy in rats
- Type: functional

**Q:** Report EDmin from Sodium-dependent dopamine transporter (Rattus norvegicus) (UniProt P23977) testing of CN1Cc2c(NC(=O)CN3CCCCC3)cccc2C(c2ccccc2)C1 (configuration not stated)
**A:** > 83 mg/kg

**Q:** Under Sodium-dependent dopamine transporter (Rattus norvegicus) (UniProt P23977), report EDmin for CCNCC(=O)Nc1cccc2c1CN(C)CC2c1ccc(C)cc1 (configuration not stated)
**A:** > 83 mg/kg

**Q:** Write down the reported EDmin (system: Sodium-dependent dopamine transporter (Rattus norvegicus) (UniProt P23977)) of CCCNC(=O)Nc1cccc2c1CN(C)CC2c1ccccc1 (configuration not stated)
**A:** > 83 mg/kg

**Q:** Print Sodium-dependent dopamine transporter (Rattus norvegicus) (UniProt P23977) EDmin for CCOC(=O)Nc1cccc2c1CN(C)CC2c1ccccc1 (configuration not stated) .
**A:** > 12.8 mg/kg

**Q:** Fill in EDmin for CN1Cc2c(NC(=O)OCCCl)cccc2C(c2ccccc2)C1 (configuration not stated) tested with Sodium-dependent dopamine transporter (Rattus norvegicus) (UniProt P23977).
**A:** > 20.5 mg/kg

**Q:** Under Sodium-dependent dopamine transporter (Rattus norvegicus) (UniProt P23977): report EDmin of CC(C)NCCC(=O)Nc1cccc2c1CN(C)CC2c1ccccc1 (configuration not stated) .
**A:** > 83 mg/kg

**Q:** Report measured EDmin on Sodium-dependent dopamine transporter (Rattus norvegicus) (UniProt P23977); entry: CC(C)NCC(=O)Nc1cccc2c1CN(C)CC2c1ccccc1 (configuration not stated)
**A:** > 52.4 mg/kg
